Parameter: Extraction Ratio (ER). Scope: all listed entries.
# Test system: human hepatocytes
# experiment-description: Hepatocytes stability assay (human hepatocytes)
# Assay type: in vitro ADME
# measurement-parameters: hepatic clearance divided by liver blood flow, fu assumed unity

compound: CS(=O)(=O)N[C@H]1CCN(Cc2ccccn2)CC1COC1CCC(c2ccccc2)CC1 (stereo partly shown) [Compound 39]
Extraction Ratio (ER): 0.90

compound: CS(=O)(=O)N[C@H]1CCN(c2ccccn2)CC1COC1CCC(c2ncccn2)CC1 (stereo partly shown) [Compound 11]
Extraction Ratio (ER): 0.76

compound: CS(=O)(=O)N[C@H]1CCN(Cc2cccnc2)CC1COC1CCC(c2ccccc2)CC1 (stereo partly shown) [Compound 40]
Extraction Ratio (ER): 0.93

compound: CS(=O)(=O)N[C@H]1CCN(c2cccc3ccnn23)CC1COC1CCC(c2ccccc2)CC1 (stereo partly shown) [Compound 42]
Extraction Ratio (ER): 0.94

compound: C[C@@]1(COC2CCC(c3ccccc3)CC2)CN(c2ccccn2)CC[C@@H]1NS(C)(=O)=O (stereo partly shown) [Compound 29]
Extraction Ratio (ER): 0.82

compound: CS(=O)(=O)N[C@H]1CCN(c2ccncn2)CC1COC1CCC(c2ccccc2)CC1 (stereo partly shown) [Compound 20]
Extraction Ratio (ER): 0.90

compound: CS(=O)(=O)N[C@H]1CCN(c2ccccn2)CC1COC1CCC(c2ccc(O)cc2)CC1 (stereo partly shown) [Compound 32]
Extraction Ratio (ER): 0.94

compound: CS(=O)(=O)N[C@H]1CCN(c2ccccn2)CC1COC1CCC(c2ccc(F)cc2)CC1 (stereo partly shown) [Compound 7]
Extraction Ratio (ER): 0.85

compound: CS(=O)(=O)N[C@H]1CCN(Cc2ccncc2)CC1COC1CCC(c2ccccc2)CC1 (stereo partly shown) [Compound 41]
Extraction Ratio (ER): 0.94

compound: C[C@H](c1ccccc1)N1CC[C@H](NS(C)(=O)=O)C(COC2CCC(c3ccccc3)CC2)C1 (stereo partly shown) [Compound 38]
Extraction Ratio (ER): 0.93

compound: CS(=O)(=O)N[C@H]1CCN(c2cnccn2)CC1COC1CCC(c2ccccc2)CC1 (stereo partly shown) [Compound 21]
Extraction Ratio (ER): 0.94

compound: CS(=O)(=O)N[C@H]1CCN(c2ncccc2C(F)(F)F)CC1COC1CCC(c2ccccc2)CC1 (stereo partly shown) [Compound 28]
Extraction Ratio (ER): 0.96

compound: Cc1cc(C)cc(C2CCC(OCC3CN(c4ccccn4)CC[C@@H]3NS(C)(=O)=O)CC2)c1 (stereo partly shown) [Compound 18]
Extraction Ratio (ER): 0.84

compound: CS(=O)(=O)N[C@H]1CCN(c2ccccn2)CC1COC1CCC(c2cccc(O)c2)CC1 (stereo partly shown) [Compound 31]
Extraction Ratio (ER): 0.92

compound: CS(=O)(=O)N[C@H]1CCN(c2cccc(F)n2)CC1COC1CCC(c2ccccc2)CC1 (stereo partly shown) [Compound 23]
Extraction Ratio (ER): 0.79

compound: CS(=O)(=O)N[C@H]1CCN(c2cccc3ncnn23)CC1COC1CCC(c2ccccc2)CC1 (stereo partly shown) [Compound 43]
Extraction Ratio (ER): 0.94

* * *

Parameter: efflux ratio at 2 h, 3 μM. Scope: all listed entries.
# Tested on: MDR1
# experiment-description: MDCK-MDR1 permeability assay
# Type: in vitro ADME
# measurement-parameters: dog, Papp (B→A) divided by Papp (A→B), 3 μM test compound, read-out: Efflux ratio (ER)
measured-property: efflux ratio at 2 h, 3 μM

molecule: Cc1cccc(C2CCC(OCC3CN(c4ccccn4)CC[C@@H]3NS(C)(=O)=O)CC2)c1C (some centres unmarked)
measured-property: efflux ratio at 2 h, 3 μM
limit-qualifier: >
test-value: 6.9

molecule: Cc1ccccc1C1CCC(OCC2CN(c3ccccn3)CC[C@@H]2NS(C)(=O)=O)CC1 (some centres unmarked)
measured-property: efflux ratio at 2 h, 3 μM
limit-qualifier: >
test-value: 6.9

molecule: CS(=O)(=O)N[C@H]1CCN(c2ccccn2)CC1COC1CCC(c2cccc(O)c2)CC1 (some centres unmarked)
measured-property: efflux ratio at 2 h, 3 μM
limit-qualifier: =
test-value: 18

molecule: CS(=O)(=O)N[C@H]1CCN(c2ccccn2)CC1COC1CCC(c2ccccc2O)CC1 (some centres unmarked)
measured-property: efflux ratio at 2 h, 3 μM
limit-qualifier: =
test-value: 28

molecule: CS(=O)(=O)N[C@H]1CCN(c2ccccn2)CC1COC1CCC(c2ccccc2F)CC1 (some centres unmarked)
measured-property: efflux ratio at 2 h, 3 μM
limit-qualifier: >
test-value: 7.2

molecule: C[C@@]1(COC2CCC(c3ccccc3)CC2)CN(c2ccccn2)CC[C@@H]1NS(C)(=O)=O (some centres unmarked)
measured-property: efflux ratio at 2 h, 3 μM
limit-qualifier: >
test-value: 17

molecule: CS(=O)(=O)N[C@H]1CCN(c2ccc(F)cn2)CC1COC1CCC(c2ccccc2)CC1 (some centres unmarked)
measured-property: efflux ratio at 2 h, 3 μM
limit-qualifier: =
test-value: 30

molecule: CS(=O)(=O)N[C@H]1CCN(c2ccccn2)CC1COC1CCC(c2ccccc2)CC1 (some centres unmarked)
measured-property: efflux ratio at 2 h, 3 μM
limit-qualifier: =
test-value: 1.4
